assay: Bioavailability in ip dosed mouse; type: ADME, organism-based; settings: in vivo
measure: bioavailability (%)

CCOC(=O)N[C@@H](CCCCN)C(=O)c1noc(Cc2ccc(OCCc3ccccc3)cc2)n1    68

----------
biological target: Tryptase beta-1 (Homo sapiens, UniProt Q15661); assay: Binding affinity to recombinant cynomolgus monkey tryptase
Sequence (Q15661 whole entry): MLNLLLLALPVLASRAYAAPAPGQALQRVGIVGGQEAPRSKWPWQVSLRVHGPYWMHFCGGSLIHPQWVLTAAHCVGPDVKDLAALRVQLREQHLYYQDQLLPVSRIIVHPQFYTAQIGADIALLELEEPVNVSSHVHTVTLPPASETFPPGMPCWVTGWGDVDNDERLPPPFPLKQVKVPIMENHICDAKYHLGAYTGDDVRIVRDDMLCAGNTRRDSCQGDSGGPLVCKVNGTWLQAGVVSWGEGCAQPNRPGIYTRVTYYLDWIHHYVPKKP
measure: Ki (nM)

CCOC(=O)N[C@@H](CCCCN)C(=O)c1noc(Cc2ccc(OCCc3ccccc3)cc2)n1    46.5
